Reported IC50 values for the following compounds.
# tgt: TSPO receptors in SCC-15 cell line (Homo sapiens)
# Construct: endogenous in cells; host or cells: SCC-15
# protocolNotes: Displacement of [3H]PK11195 from TSPO receptors in SCC-15 cells
# Format: binding
# runParameters: 50% inhibition of [3H]PK11195 binding, SCC-15; read-out: IC50
Express it in µM; write the number only.

# structure, dataValue
data = [
    ("CN1C(=O)CN=C(c2ccc(Cl)cc2)c2cc(Cl)ccc21", 2.07),
]

Entry CCCCCCN(CCCCCC)C(=O)Cc1c(-c2ccc(F)cc2)[nH]c2ccccc12 ; IC50 = 0.164

* * *

# tgt: human salivary TSPO (Homo sapiens)
# Construct: from tissue; host or cells: cells pelleted from human saliva samples (volunteers; smokers and non-smokers)
# protocolNotes: Competition of TSPO ligands with [3H]PK11195 binding in human saliva
# Experimental: After 80 minutes of incubation at 4° C., the samples were filtered through Whatman CF/C filters using a vacuum system, washed three times with 4 ml of 5 mM ice-cold phosphate buffer and placed in vials containing 4 ml of Opti-Fluor. Radioactivity was counted after 12 hours with a liquid scintillation analyzer. Specific binding was obtained by subtracting non specific binding from total binding.
measurementLabel: pKi
Quick note: pKi values are minus log10 of concentrations in mol/L.

Entry CN1C(=O)CN=C(c2ccccc2)c2cc(Cl)ccc21 ; pKi = 5.35

* * *

# tgt: human salivary TSPO (Homo sapiens, UniProt P30536)
# Construct: from tissue; host or cells: cells pelleted from human saliva samples (volunteers; smokers and non-smokers)
# protocolNotes: Competition of TSPO ligands with [3H]PK11195 binding in human saliva
# runParameters: inhibition of [3H]PK11195 binding, human saliva, four independent experiments; read-out: Ki
Reported pKi values for the following compounds.
Quick note: pKi values are minus log10 of concentrations in mol/L.

# structure, pKi
rows = [
    ("CN1C(=O)CN=C(c2ccc(Cl)cc2)c2cc(Cl)ccc21", 6.30),
]

As a next step, examine the compound that follows.
Entry CCCCCCN(CCCCCC)C(=O)Cc1c(-c2ccc(F)cc2)[nH]c2ccccc12 ; pKi = 6.82

* * *

# tgt: TSPO receptors in SCC-25 cell line (Homo sapiens, UniProt P30536)
# Construct: endogenous in cells; host or cells: SCC-25
# Sequence (P30536 whole entry): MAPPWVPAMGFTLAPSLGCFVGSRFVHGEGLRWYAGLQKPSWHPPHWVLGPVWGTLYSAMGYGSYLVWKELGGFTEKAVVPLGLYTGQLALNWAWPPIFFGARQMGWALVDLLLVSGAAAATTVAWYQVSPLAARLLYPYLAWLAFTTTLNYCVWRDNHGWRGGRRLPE
# protocolNotes: Displacement of [3H]PK11195 from TSPO receptors in SCC-25 cells
# Type: binding
measurementLabel: IC50 (µM)
Express it in µM; write the number only.

Case CN1C(=O)CN=C(c2ccccc2)c2cc(Cl)ccc21 [Diazepam] , TSPO receptors in SCC-25 cell line (Homo sapiens, UniProt P30536), IC50 recorded as 14.2
